target: androgen receptor (AdEasy+rAR, COS-7 cells) (Rattus norvegicus); construct: expressed in transfected cells; host or cells: COS-7 cells transduced with adenovirus AdEasy+rAR; test: COS-7 Whole-Cell Androgen Receptor Binding Assay, Adenovirus Transduction; details: concentration of 3000 nM; 3 µM
Sequence (P15207 whole entry S389L): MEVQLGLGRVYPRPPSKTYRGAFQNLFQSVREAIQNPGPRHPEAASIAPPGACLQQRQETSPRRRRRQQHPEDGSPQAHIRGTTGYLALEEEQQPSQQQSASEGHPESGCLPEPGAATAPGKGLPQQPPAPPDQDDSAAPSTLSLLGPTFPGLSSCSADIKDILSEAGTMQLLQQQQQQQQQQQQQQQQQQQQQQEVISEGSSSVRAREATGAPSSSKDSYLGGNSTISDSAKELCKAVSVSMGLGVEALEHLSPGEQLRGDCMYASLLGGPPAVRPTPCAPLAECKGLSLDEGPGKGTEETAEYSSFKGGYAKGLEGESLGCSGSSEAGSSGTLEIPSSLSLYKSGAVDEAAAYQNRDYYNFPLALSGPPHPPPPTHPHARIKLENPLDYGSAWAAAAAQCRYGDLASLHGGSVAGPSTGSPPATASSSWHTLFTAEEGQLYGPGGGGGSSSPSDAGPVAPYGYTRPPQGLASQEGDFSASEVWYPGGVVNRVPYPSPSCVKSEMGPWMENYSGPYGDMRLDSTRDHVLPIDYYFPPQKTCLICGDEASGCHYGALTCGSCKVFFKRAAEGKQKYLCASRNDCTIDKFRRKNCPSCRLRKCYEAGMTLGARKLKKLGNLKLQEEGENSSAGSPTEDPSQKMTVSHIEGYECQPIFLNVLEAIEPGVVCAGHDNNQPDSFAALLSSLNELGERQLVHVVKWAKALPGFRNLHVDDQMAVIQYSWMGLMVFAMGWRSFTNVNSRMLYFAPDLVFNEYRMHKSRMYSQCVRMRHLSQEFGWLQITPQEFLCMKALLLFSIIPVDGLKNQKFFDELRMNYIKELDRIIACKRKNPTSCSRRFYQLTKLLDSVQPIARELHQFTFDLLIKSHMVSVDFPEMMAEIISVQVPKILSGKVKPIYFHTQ
Measured % Inhibition, COS Binding accompanies every entry in the list below.
Numbers only; they are read as %.

Molecule: CC(O)(CS(C)(=O)=O)c1cc2cc([N+](=O)[O-])c(C(F)(F)F)cc2[nH]1 (stereo not shown) [Compound 148]
Observed measurement: 32
--
Molecule: CCS(=O)(=O)CC(C)(O)c1[nH]c2cc(C(F)(F)F)c(C#N)cc2c1C (single isomer, unassigned)
Observed measurement: 68
--
Molecule: CCSCC(C)(O)c1cc2cc([N+](=O)[O-])c(C(F)(F)F)cc2n1C (single isomer, unassigned)
Observed measurement: 78
--
Molecule: CCS(=O)(=O)C[C@](C)(O)c1cc2cc([N+](=O)[O-])c(C(F)(F)F)cc2[nH]1
Observed measurement: 52

Query CC(O)(CSCC(F)(F)F)c1cc2cc([N+](=O)[O-])c(C(F)(F)F)cc2[nH]1 (stereo not shown) [Compound 171] yields % Inhibition, COS Binding of 94

Query CSCC(C)(O)c1cc2cc([N+](=O)[O-])c(C(F)(F)F)cc2[nH]1 (racemic) yields % Inhibition, COS Binding of 97

Query CCS(=O)(=O)CC(C)(O)c1cc2cc([N+](=O)[O-])c(C(F)(F)F)cc2[nH]1 (stereo not shown) yields % Inhibition, COS Binding of 55
